Source of measurements: ChEMBL document CHEMBL1201862

Can you tell me GI50 for the items I'm about to list?
tested on: T47D; experiment: NCI tumour cell line growth inhibition, 48 h
The source made the active and inactive calls. Rule as the data show it: active = GI50 up to about 1.1 µM and inactive = higher.

Ask | Give its GI50 value. Item: Nc1nc(-c2ccccc2)cc(-c2ccc(F)cc2)c1-c1ccc(Cl)cc1
Reply | > 100 µM (inactive)

Ask | Give its GI50 value. Item: OC1CN2CCS[C@H]2C(O)C1O (stereo not given in full)
Reply | > 100 µM (inactive)

Ask | Give its GI50 value. Item: COC(=O)c1cc(OS(=O)(=O)C(F)(F)F)c(=O)n2c1CCCC2
Reply | > 100 µM (inactive)

Ask | Give its GI50 value. Item: CO/C=C(/C(=O)OC)c1ccccc1[C@H]1C[C@@H]1c1ccc(OC)cc1
Reply | 21.1 µM (inactive)

Ask | Give its GI50 value. Item: NNC1=Nc2ccc(Cl)cc2C(=S)N2CSCC12 (stereo not given)
Reply | > 100 µM (inactive)
